Where do these numbers come from? They come from patent US11912685B2.

# Tested on: MT-4 cells
# ASSAY METHOD TEXT: Cytotoxicity in uninfected MT-4 cells (MTT assay)
# Assay type: cell-based
# ASSAY CONTEXT: Mean ± SD, at least three independent experiments
QUANTITY: CC50 (µM)
One number for each entry, in µM.

Items follow; give CC50 for each.
1. N#Cc1ccc(Nc2nccc(Nc3c(F)cc(-c4cccnc4)cc3F)n2)cc1 [compound 2]
2. N#Cc1ccc(Nc2nccc(Nc3c(F)cc(-c4ccnc(-c5ccnc(Cl)c5)c4)cc3F)n2)cc1 [compound 19]

1: 242; 2: 51

Items follow; give CC50 for each.
1. N#Cc1ccc(Nc2nccc(Nc3c(F)cc(-c4csc5ccccc45)cc3F)n2)cc1 [compound 13]
2. Cc1cc(-c2cc(F)c(Nc3ccnc(Nc4ccc(C#N)cc4)n3)c(F)c2)ccn1 [compound 20]
3. N#Cc1ccc(Nc2nccc(Nc3c(F)cc(-c4ccnc(F)c4)cc3F)n2)cc1 [compound 9]

1. 16
2. 3.2
3. 5

---

# Test system: MT-4 cells
# ASSAY METHOD TEXT: Cytotoxicity in uninfected MT-4 cells (MTT assay)
# Assay type: cell-based
# ASSAY CONTEXT: Mean ± SD, at least three independent experiments
Provide the recorded CC50 for the entries that follow.
Give bare numbers, in µM.

Some solved entries appear below for comparison.
Fill in: CC50 on MT-4 cells, entry N#Cc1ccc(Nc2nccc(Nc3c(F)cc(-c4ccoc4)cc3F)n2)cc1 [compound 5]
10.6

Fill in: CC50 on MT-4 cells, entry N#Cc1ccc(Nc2nccc(Nc3c(F)cc(-c4coc5ccccc45)cc3F)n2)cc1 [compound 12]
87

Fill in: CC50 on MT-4 cells, entry N#Cc1ccc(Nc2nccc(Nc3c(F)cc(-c4cc(Cl)nc(Cl)c4)cc3F)n2)cc1 [compound 10]
5.4

Fill in: CC50 on MT-4 cells, entry N#Cc1ccc(Nc2nccc(Nc3c(F)cc(-c4ccsc4)cc3F)n2)cc1 [compound 7]
55.4

Fill in: CC50 on MT-4 cells, entry Cc1cc(-c2cc(F)c(Nc3ccnc(Nc4ccc(C#N)cc4)n3)c(F)c2)cc(C)n1 [compound 21]
1.2

Items follow; give CC50 for each.
1. N#Cc1ccc(Nc2nccc(Nc3c(F)cc(-c4ccco4)cc3F)n2)cc1 [compound 4]
2. N#Cc1ccc(Nc2nccc(Nc3c(F)cc(-c4ccnc(Cl)c4Cl)cc3F)n2)cc1 [compound 11]
3. N#Cc1ccc(Nc2nccc(Nc3c(F)cc(-c4ccnc(Cl)c4)cc3F)n2)cc1 [compound 18]
4. COc1cc(-c2cc(F)c(Nc3ccnc(Nc4ccc(C#N)cc4)n3)c(F)c2)ccn1 [compound 22]

16.6
20
4.2
6.7

---

# Tested on: MT-4 cells
# ASSAY METHOD TEXT: Cytotoxicity in uninfected MT-4 cells (MTT assay)
# Format: cell-based
# ASSAY CONTEXT: Mean ± SD, at least three independent experiments
QUANTITY: CC50

Find the measured CC50 of O=C1Nc2ccc(Cl)cc2[C@@](C#CC2CC2)(C(F)(F)F)O1 [EFV, Efavirenz, reference compound] and report it.
> 6.33 µM

Items follow; give CC50 for each.
1. N#Cc1ccc(Nc2nccc(Nc3c(F)cc(-c4ccc(N)cc4)cc3F)n2)cc1
2. N#Cc1ccc(Nc2nccc(Nc3c(F)cc(-c4cccs4)cc3F)n2)cc1
3. Cc1cc(C#N)cc(C)c1Oc1nc(Nc2ccc(C#N)cc2)nc(N)c1Br [ETR, Etravirine, reference compound]

1: > 303 µM; 2: > 308 µM; 3: > 4.6 µM
